Just for reference, patent US9493487B2 is where these values come from.

- System: Wnt activity (Sp5-Luc reporter, SW480 colon carcinoma cells)
- test-protocol: Sp5-Luc Wnt reporter gene assay in SW480 colon carcinoma cells
- Type: cell-based
- setup-conditions: Homo sapiens; SW480 cells stably expressing Sp5-Luc reporter; 42 h incubation; BrightGlo luminescence normalized to DMSO
measured-property: IC50 (nM)
Give your result in nM as a bare value.

// known answers, use as guide
| compound | unit-descriptor | IC50 |
| --- | --- | --- |
| COc1cc(F)cc(-c2nccc3[nH]c(-c4n[nH]c5ncc(-c6cncc(NC(=O)CC(C)C)c6)cc45)nc23)c1 [Compound 1324] | nM | 85 |
| CC(C)CC(=O)Nc1cncc(-c2cnc3[nH]nc(-c4nc5c(-c6cc(O)cc(F)c6)nccc5[nH]4)c3c2)c1 [Compound 1280] | nM | 90 |

Problem: Return reported IC50; argument: CC(C)Nc1cncc(-c2cnc3[nH]nc(-c4nc5c(-c6cccnc6)nccc5[nH]4)c3c2)c1 [Compound 90]
Solution: 79.7

----------
Below, each entry is listed alongside its reported pIC50.
- System: Wnt activity (Sp5-Luc reporter, SW480 colon carcinoma cells)
- test-protocol: Sp5-Luc Wnt reporter gene assay in SW480 colon carcinoma cells
- Type: cell-based
- setup-conditions: Homo sapiens; SW480 cells stably expressing Sp5-Luc reporter; 42 h incubation; BrightGlo luminescence normalized to DMSO
- Description: The screening assay for Wnt activity is described as follows. […] SW480 colon carcinoma cells were transduced with a lentiviral vector expressing luciferase with a human Sp5 promoter consisting of a sequence of eight TCF/LEF binding sites. […] Following incubation, the growth medium was removed and 50 μl of BrightGlo luminescence reagent (Promega) was added to each well of the 96-well assay plates. […]
pIC50: −log10 of the molar value.

// known answers, use as guide
| compound | measured-property | experimental-result |
| --- | --- | --- |
| CS(=O)(=O)NCc1cc(F)cc(-c2nccc3[nH]c(-c4n[nH]c5ncc(-c6cncc(NC(=O)c7ccccc7)c6)cc45)nc23)c1 | pIC50 | < 5.00 |
| CC(=O)c1ccc(-c2nccc3[nH]c(-c4n[nH]c5ncc(-c6cncc(NC(=O)Cc7ccccc7)c6)cc45)nc23)s1 | pIC50 | < 5.00 |

Alright, here's another compound for you.
Problem: Return reported pIC50; argument: `CS(=O)(=O)NCc1cc(F)cc(-c2nccc3[nH]c(-c4n[nH]c5ncc(-c6cncnc6)cc45)nc23)c1`
Solution: < 5.00

----------
- System: Wnt activity (Sp5-Luc reporter, SW480 colon carcinoma cells)
- test-protocol: Sp5-Luc Wnt reporter gene assay in SW480 colon carcinoma cells
- Type: cell-based
- setup-conditions: Homo sapiens; SW480 cells stably expressing Sp5-Luc reporter; 42 h incubation; BrightGlo luminescence normalized to DMSO
measured-property: IC50

| compound | IC50 |
| --- | --- |
| Cc1ccncc1-c1cnc2[nH]nc(-c3nc4c(-c5ccncc5)nccc4[nH]3)c2c1 | > 10 µM |
| Fc1cccc(-c2nccc3[nH]c(-c4n[nH]c5ncc(-c6ccncc6)cc45)nc23)c1 | > 10 µM |

Alright, here's another molecule for you.
Problem: Return reported IC50; argument: `O=C(Cc1ccccc1)Nc1cncc(-c2cnc3[nH]nc(-c4nc5c(-c6ccncc6)nccc5[nH]4)c3c2)c1`
Solution: > 10 µM
